testReadout: melting point (°C)
Answers are plain numbers, in °C.

>  <compound>
Cc1ccc(C#N)cn1

>  <melting point [°C]>
85

$$$$
>  <compound>
CC(C)(C)c1ccc(-c2ccc(Br)cc2)cc1

>  <melting point [°C]>
142

$$$$
>  <compound>
CCCCCCCCC=CCCCCCCCCOC(=O)OC1CCC2(C)C(=CCC3C2CCC2(C)C(C(C)CCCC(C)C)CCC32)C1 (stereo unspecified)

>  <melting point [°C]>
20

$$$$

Turning to the following compound.
Fill in: melting point of CC12CCC(C(C(=O)c3ccccc3)C1=O)C2(C)C (stereo unspecified) is ___ 98

Provenance of the data: a melting point compilation (Tetko et al.)
